Test system: murine neural precursor cells (neurosphere cultures)
Assay Name: HTS of LOPAC library against secondary neurosphere cultures, MTT proliferation assay at 3 μM, day 7 (z score, P value)
Assay type: cell-based, mouse
Conditions: LOPAC library screen, 3 μM, MTT, neurosphere cultures
Counter-ions that a name gives are not always drawn.
Rule: Z Score under 0.9 gives 0.0, otherwise 1.0.

Compound: OC(CCN1CCCCC1)(c1ccccc1)C1CCCCC1 (centres unmarked) [Trihexyphenidyl hydrochloride]
Answer Label: 1.0

Compound: C[C@H]1O[C@@H](n2cc(F)c(=O)[nH]c2=O)[C@H](O)[C@@H]1O [5-fluoro-5′-deoxyuridine]
Answer Label: 0.0

Compound: NC(=O)N1c2ccccc2C=Cc2ccccc21 [Carbamazepine]
Answer Label: 1.0

Compound: CC(C)C[C@H](NC(=O)[C@@H](O)[C@H](N)Cc1ccccc1)C(=O)O [Bestatin hydrochloride]
Answer Label: 0.0

Compound: O=C(CCNNC(=O)c1ccncc1)NCc1ccccc1 [Nialamide]
Answer Label: 0.0

Compound: N[C@H](CCC(=O)NCS(=O)(=O)O)C(=O)O [gamma-D-Glutamylaminomethylsulfonic acid]
Answer Label: 0.0

Compound: CCCCc1oc2ccccc2c1C(=O)c1cc(I)c(OCCN(CC)CC)c(I)c1 [Amiodarone hydrochloride]
Answer Label: 1.0

Compound: OC[C@H]1O[C@@H](n2cnc3c(NCCc4ccccc4)ncnc32)[C@H](O)[C@@H]1O [N6-2-Phenylethyladenosine]
Answer Label: 0.0

Compound: Oc1cc2c(cc1O)CN(C(=S)NCCc1ccc(Cl)cc1)CCC2 [Capsazepine]
Answer Label: 1.0

Compound: CCCn1cnc2c1c(=O)n(CCCCC(C)=O)c(=O)n2C [Propentofylline]
Answer Label: 0.0

----------
Test system: murine neural precursor cells (neurosphere cultures)
Assay Name: HTS of LOPAC library against secondary neurosphere cultures, MTT proliferation assay at 3 μM, day 7 (z score, P value)
Type: cell-based, mouse
Conditions: 168 h, 3 µM
Structures can show the parent of a compound that is named as a salt.

Compound: Br.Br.N=C(N)NCCSSCCNC(=N)N [Guanidinoethyl disulfide dihydrobromide]
Target Entity: murine neural precursor cells (neurosphere cultures)
Z Score: −4.521
//
Compound: CCN(CC)CCNC(=O)c1cc(Cl)c(N)cc1OC [Metoclopramide hydrochloride]
Target Entity: murine neural precursor cells (neurosphere cultures)
Z Score: −1.992
//
Compound: CN1CCN(CCCN2c3ccccc3Sc3ccc(C(F)(F)F)cc32)CC1 [Trifluoperazine dihydrochloride]
Target Entity: murine neural precursor cells (neurosphere cultures)
Z Score: −9.305
//
Compound: CN1CCN(CCCN2c3ccccc3Sc3ccc(Cl)cc32)CC1 [Prochlorperazine dimaleate]
Target Entity: murine neural precursor cells (neurosphere cultures)
Z Score: −0.8602
//
Compound: O=C(O)[C@H]1C[C@H](C(=O)O)N1 (relative stereo) [trans-Azetidine-2,4-dicarboxylic acid]
Target Entity: murine neural precursor cells (neurosphere cultures)
Z Score: −0.3491
//
Compound: CN1CCC[C@@H]1CCO[C@](C)(c1ccccc1)c1ccc(Cl)cc1 [Clemastine fumarate]
Target Entity: murine neural precursor cells (neurosphere cultures)
Z Score: −2.023
//
Compound: O=C(O)c1cc(O)cc(C(=O)O)n1
Target Entity: murine neural precursor cells (neurosphere cultures)
Z Score: 0.7261
//
Compound: O=c1cc(-c2ccc(O)cc2)oc2cc(O)cc(O)c12
Target Entity: murine neural precursor cells (neurosphere cultures)
Z Score: 1.824
//
Compound: COc1ccccc1N1CCN(CCCCNC(=O)c2ccc3ccccc3c2)CC1
Target Entity: murine neural precursor cells (neurosphere cultures)
Z Score: −1.715
//
Compound: Cn1c(=O)c2[nH]c(-c3ccccc3)nc2n(C)c1=O
Target Entity: murine neural precursor cells (neurosphere cultures)
Z Score: 0.7518
//
Compound: O=c1c2ccccc2nc2n1CCc1c-2[nH]c2ccccc12
Target Entity: murine neural precursor cells (neurosphere cultures)
Z Score: 0.6857
//
Compound: CN1CCC(=C2c3ccccc3C=Cc3ccccc32)CC1 [Cyproheptadine hydrochloride]
Target Entity: murine neural precursor cells (neurosphere cultures)
Z Score: 1.232
//
Compound: COC(=O)[C@H]1[C@H]2C[C@H]3c4[nH]c5ccccc5c4CCN3C[C@H]2CC[C@@H]1O [Rauwolscine hydrochloride]
Target Entity: murine neural precursor cells (neurosphere cultures)
Z Score: −1.747
//
Compound: O=c1n(CCCN2CCN(c3cccc(Cl)c3)CC2)nc2ccccn12 [Trazodone hydrochloride]
Target Entity: murine neural precursor cells (neurosphere cultures)
Z Score: −2.644
//
Compound: N=C(N)NC(=N)Nc1ccccc1 [1-Phenylbiguanide]
Target Entity: murine neural precursor cells (neurosphere cultures)
Z Score: −2.689
